Source listed as ChEMBL document CHEMBL4184220.

Biological target: UniProtKB P05121
Sequence (P05121 whole entry): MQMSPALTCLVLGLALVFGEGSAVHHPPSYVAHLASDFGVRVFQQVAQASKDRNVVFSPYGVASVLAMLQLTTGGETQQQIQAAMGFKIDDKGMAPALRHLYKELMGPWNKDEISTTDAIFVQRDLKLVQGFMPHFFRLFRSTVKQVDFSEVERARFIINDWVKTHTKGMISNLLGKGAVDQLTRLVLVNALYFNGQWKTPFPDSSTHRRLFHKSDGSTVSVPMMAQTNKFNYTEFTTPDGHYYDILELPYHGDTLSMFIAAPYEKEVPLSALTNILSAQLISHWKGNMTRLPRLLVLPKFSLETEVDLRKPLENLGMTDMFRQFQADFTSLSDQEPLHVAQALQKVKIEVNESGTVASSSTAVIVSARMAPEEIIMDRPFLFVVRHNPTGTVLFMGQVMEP
Test: Inhibition of human PAI-1 assessed as remaining enzyme activity by measuring p-nitroaniline release pre-incubated for 15 mins before 2 nM […] addition for 15 mins using 5 nM enzyme and chromogenic substrate S-2288 by spectrophotometry
endpointName: IC50 (µM)

Please review the following examples before continuing.
O=C(Nc1ccc(Cl)cc1C(=O)[O-])c1cccc(-c2cnc3ccccc3c2)c1.[Na+]; 1.67
O=C(Nc1ccc(Cl)cc1C(=O)O)c1cccc(C2=CCCCC2)c1; 2.31

I. O=C(Nc1ccc(Cl)cc1C(=O)O)c1ccc(C2CCOCC2)cc1
II. O=C(Nc1ccc(Cl)cc1C(=O)[O-])c1cccc(-c2cccc3cnccc23)c1.[Na+]
III. O=C(Nc1ccc(Cl)cc1C(=O)O)c1cccc(-c2ccccc2)c1
IV. O=C(Nc1ccc(Cl)cc1C(=O)O)c1ccc(C23CC4CC(CC(C4)C2)C3)cc1
V. O=C(Nc1ccc(Cl)cc1C(=O)O)c1ccc(C(=O)c2ccccc2)cc1
Ascending sort, IC50. Write the labels, ordered according to the request. IV, II, III, V, I
(IV: 1.17 µM, II: 1.84 µM, III: 2.82 µM, V: 4.11 µM, I: 21.6 µM)

---

Assay: Half life in Wistar rat at 5 mg/kg, po administered as triple or quadruple dosing measured after 1 to 24 hrs by reverse-phase HPLC method
Format: ADME, organism-based
Conditions: in vivo
endpointName: half-life (h)

Examples from the recorded data:
O=C(Nc1ccc(Cl)cc1C(=O)O)c1cccc(C2CCCCC2)c1; 1.4
CC(C)(C)c1ccc(C(=O)Nc2ccc(Cl)cc2C(=O)O)cc1; 3.4
O=C(COc1cccc(-c2ccoc2)c1)Nc1ccc(Cl)cc1C(=O)O; 1.9
CC(C)Oc1ccc(C(=O)Nc2ccc(Cl)cc2C(=O)O)cc1; 5

a. O=C(Nc1ccc(Cl)cc1C(=O)O)c1ccc(-c2ccccc2)cc1
b. O=C(Nc1ccc(Cl)cc1C(=O)O)c1cccc(-c2ccccc2)c1
c. O=C(Nc1ccc(Cl)cc1C(=O)O)c1ccc(C23CC4CC(CC(C4)C2)C3)cc1
Returns the items ordered by half-life, from maximum to minimum. # respond with the labels, arranged in the requested order a, c, b
(a: 10.4 h, c: 4.3 h, b: 1.6 h)

---

Test: Cmax in Wistar rat at 5 mg/kg, po administered as triple or quadruple dosing measured after 1 to 24 hrs by reverse-phase HPLC method
Type: ADME, organism-based
Parameters: dose 5 mg/kg, route oral
Settings: in vivo
endpointName: Cmax (µM)

Solved cases (3 shown):
O=C(Nc1ccc(Cl)cc1C(=O)O)c1cccc(-c2ccoc2)c1; 29.4
O=C(CSCC(=O)Nc1ccc(Cl)cc1C(=O)O)Nc1cccc(-c2ccoc2)c1; 5.4
O=C(Nc1ccc(Cl)cc1C(=O)[O-])c1cccc(-c2cccc3cccnc23)c1.[Na+]; 22.2

A. CC(C)Oc1ccc(C(=O)Nc2ccc(Cl)cc2C(=O)O)cc1
B. O=C(Nc1ccc(Cl)cc1C(=O)O)c1cccc(C23CC4CC(CC(C4)C2)C3)c1
C. O=C(Nc1ccc(Cl)cc1C(=O)[O-])c1cccc(-c2cccc3cnccc23)c1.[Na+]
D. O=C(COc1cccc(-c2ccoc2)c1)Nc1ccc(Cl)cc1C(=O)O
E. O=C(Nc1ccc(Cl)cc1C(=O)O)c1ccc(-c2cccs2)cc1
Kindly order the items shown according to Cmax, from the highest value down. # the answer lists labels in the order requested D, E, A, B, C

a. CC(C)(C)c1ccc(C(=O)Nc2ccc(Cl)cc2C(=O)O)cc1
b. O=C(Nc1ccc(Cl)cc1C(=O)O)c1cccc(C2CCCCC2)c1
Looking only at measured Cmax, which entry is lower, a or b ? Lab log: write the label of the selected item as the result. b

P. O=C(Nc1ccc(Cl)cc1C(=O)O)c1ccc(C2CCOCC2)cc1
Q. O=C(Nc1ccc(Cl)cc1C(=O)O)c1ccc(-c2ccccc2)cc1
R. O=C(Nc1ccc(Cl)cc1C(=O)O)c1ccc(C23CC4CC(CC(C4)C2)C3)cc1
S. O=C(Nc1ccc(Cl)cc1C(=O)[O-])c1cccc(-c2cnc3ccccc3c2)c1.[Na+]
T. O=C(Nc1ccc(Cl)cc1C(=O)O)c1cccc(-c2cccc3ccccc23)c1
# sort list by recorded Cmax, greatest to least Reply format: the labels, ordered as requested. Q, P, R, T, S

A. O=C(COCC(=O)Nc1ccc(Cl)cc1C(=O)O)NCc1cccc(-c2ccoc2)c1
B. O=C(Cc1cccc(-c2ccoc2)c1)Nc1ccc(Cl)cc1C(=O)O
Could you tell me which of these two has the smaller Cmax figure? First: A Second: B Your answer should be the label attached to the chosen record. A
(A: 14 µM, B: 43.1 µM)
